Test system: G3BP1 NFT2
Format: binding, human
Measurement context: library DMS-CoV; bait G3BP1 NFT2; prey N; peptide RNAPRITFGGPSDSTG; listed as aa = residue placed at this position; column sums to 1
Assign DMS PSSM value, P (position 4) to each entry below.
One number for each entry.

In the examples that follow, each entry is paired with its recorded DMS PSSM value, P (position 4).
Sequence code: RNAPRITFGGPSDSTG P4D (RNADRITFGGPSDSTG)
Test target: G3BP1 NFT2
DMS PSSM value, P (position 4): 0
--
Sequence code: RNAPRITFGGPSDSTG P4F (RNAFRITFGGPSDSTG)
Test target: G3BP1 NFT2
DMS PSSM value, P (position 4): 0

Report DMS PSSM value, P (position 4) for each item below.
1. RNAPRITFGGPSDSTG P4N (RNANRITFGGPSDSTG)
2. RNAPRITFGGPSDSTG P4S (RNASRITFGGPSDSTG)
3. RNAPRITFGGPSDSTG P4E (RNAERITFGGPSDSTG)
4. RNAPRITFGGPSDSTG P4W (RNAWRITFGGPSDSTG)
5. RNAPRITFGGPSDSTG P4Y (RNAYRITFGGPSDSTG)
6. RNAPRITFGGPSDSTG P4R (RNARRITFGGPSDSTG)
7. RNAPRITFGGPSDSTG P4L (RNALRITFGGPSDSTG)

1: 0; 2: 0; 3: 0.9115; 4: 0; 5: 0; 6: 0; 7: 0

###

System: G3BP1 NFT2
Assay type: binding, human
Measurement context: library DMS-CoV; bait G3BP1 NFT2; prey N; peptide APRITFGGPSDSTGSN; listed as aa = residue placed at this position; column sums to 1
Binarize DMS PSSM value, S (position 12) at 0.001; below is label 1, at or above is label 0.

Sequence code: APRITFGGPSDSTGSN S12P (APRITFGGPSDPTGSN)
Test target: G3BP1 NFT2
Discrete label: label 1
//
Sequence code: APRITFGGPSDSTGSN S12K (APRITFGGPSDKTGSN)
Test target: G3BP1 NFT2
Discrete label: label 1
//
Sequence code: APRITFGGPSDSTGSN S12A (APRITFGGPSDATGSN)
Test target: G3BP1 NFT2
Discrete label: label 0
//
Sequence code: APRITFGGPSDSTGSN S12Q (APRITFGGPSDQTGSN)
Test target: G3BP1 NFT2
Discrete label: label 0

Is 0.001 strictly greater than the sequence's reported DMS PSSM value, S (position 12)? sequence: APRITFGGPSDSTGSN S12N (APRITFGGPSDNTGSN)
label 0

I'd appreciate it if you could check whether APRITFGGPSDSTGSN S12W (APRITFGGPSDWTGSN) has DMS PSSM value, S (position 12) smaller than 0.001.
label 0

Regarding APRITFGGPSDSTGSN S12Y (APRITFGGPSDYTGSN) , kindly confirm whether its DMS PSSM value, S (position 12) is beneath 0.001.
label 0

###

Exercise: for every item that follows, state its recorded DMS PSSM value, R (position 5).
Tested on: G3BP1 NFT2
Assay type: binding, human
Measurement context: library DMS-CoV; bait G3BP1 NFT2; prey N; peptide RNAPRITFGGPSDSTG; listed as aa = residue placed at this position; column sums to 1
Numbers only.

// below: answered sequences
Sequence code: RNAPRITFGGPSDSTG R5L (RNAPLITFGGPSDSTG)
Quantitative readout: 0.01198
//
Sequence code: RNAPRITFGGPSDSTG R5D (RNAPDITFGGPSDSTG)
Quantitative readout: 0.0001605
//
Sequence code: RNAPRITFGGPSDSTG R5K (RNAPKITFGGPSDSTG)
Quantitative readout: 0.0001577

Consider the additional sequence presented here.
Please look up its DMS PSSM value, R (position 5): RNAPRITFGGPSDSTG R5G (RNAPGITFGGPSDSTG)
0
